Record type: MIC measurement. Applies to: E. fecalis
Field: numeric (mg/L). Do not append units.

Reference set (5 entries):
CCc1cc(Nc2cc(=O)n(CCCN3CCOCC3)c(=O)[nH]2)ccc1C :: 10
CCc1cc(Nc2cc(=O)n(CCCCN3CCSCC3)c(=O)[nH]2)ccc1C :: 5
CCc1cc(Nc2cc(=O)n(CCCCCN3CC=C(c4ccc(F)cc4)CC3)c(=O)[nH]2)ccc1C :: 5
CCc1cc(Nc2cc(=O)n(CCCCNC(=O)CCl)c(=O)[nH]2)ccc1C :: 5
CCc1cc(Nc2cc(=O)n(CCCCN3CCOCC3)c(=O)[nH]2)ccc1C :: 5

The compound `CCc1cc(Nc2cc(=O)n(CCCCOC(=O)CCl)c(=O)[nH]2)ccc1C` , tested on E. fecalis, showed MIC of 2.5

The compound `CCc1cc(Nc2cc(=O)n(CCN3CCOCC3)c(=O)[nH]2)ccc1C` , tested on E. fecalis, showed MIC of 5

The compound `CCCCC1(O)CCN(CCCCCn2c(=O)cc(Nc3ccc(C)c(CC)c3)[nH]c2=O)CC1` , tested on E. fecalis, showed MIC of 10

Hey, just so you know, these numbers are from patent US20030114445A1.
